# Tested on: L1210 leukemia ip in BDF1 mice, survival T/C
# Procedure Text: NCI In Vivo Anticancer Drug Screen. Data for tumor model L1210 Leukemia (intraperitoneal) in B6D2F1 (BDF1) mice
# Condition Info: endpoint: mean survival time; dose: 25.0 mg/kg/injection; schedule: Q04DX002 (ip); vehicle: Klucel (hydroxypropylcellulose) (HPC); higher = longer survival
Toxic doses and inconclusive results are not listed.
Property Measured: T/C

Molecule: Cc1c([N+](=O)[O-])cc(C(C)(C)C)c(OC(=O)C(C)(C)C)c1[N+](=O)[O-]
T/C: 95 % of control
--
Molecule: CCCP(C)(=S)CCC
T/C: 112 % of control
--
Molecule: CC([NH-])C[NH-].[Cl][Pt+2][Cl] (centres undefined)
T/C: 104 % of control

GET /values?readout=T/C&system=L1210 leukemia ip in BDF1 mice, survival T/C&item= CC(C)=CCC(N)C(C)c1ccccc1 (centres undefined)
94 % of control

====

# System: L1210 leukemia ip in BDF1 mice, survival T/C
# Procedure Text: NCI In Vivo Anticancer Drug Screen. Data for tumor model L1210 Leukemia (intraperitoneal) in B6D2F1 (BDF1) mice
# Condition Info: endpoint: mean survival time; dose: 100.0 mg/kg/injection; schedule: Q01DX001 (ip); vehicle: carboxymethylcellulose (CMC); higher = longer survival
Toxic doses and inconclusive results are not listed.
# T/C per entry

Solved cases below.
Compound: C=CCC(CC=C)(C(N)=O)c1ccc(OC)cc1
T/C: 100 % of control
//
Compound: S=c1[nH]ccn1-c1ccccc1
T/C: 103 % of control
//
Compound: Oc1ccc2ccccc2c1N=Nc1ccc(F)cc1
T/C: 92 % of control

I would be grateful if you could share the reported T/C for CC(N)C(=O)NC(CC(N)=O)C(=O)O (configuration not stated) .
97 % of control

I would be grateful if you could share the reported T/C for O=S(=O)(O)OC1CCCC1S(=O)(=O)O (configuration not stated) .
107 % of control

I would be grateful if you could share the reported T/C for C=CC1CN2CCC1CC2C(O)c1ccnc2ccc(OC)cc12 (configuration not stated) (tested in a mixture with another compound) .
98 % of control

I would be grateful if you could share the reported T/C for "CCCCCCCOc1ccc(C2=C(c3ccccc3)C(=O)C(c3ccccc3)=C2c2ccccc2)cc1" .
100 % of control

I would be grateful if you could share the reported T/C for "Cc1c2c(c(C)c3c4c(oc13)CCCC4)C=NCC2" .
95 % of control

I would be grateful if you could share the reported T/C for O=C(c1ccc([N+](=O)[O-])cc1)C1NC1c1ccccc1 (configuration not stated) .
97 % of control

I would be grateful if you could share the reported T/C for CC(C)C(N)C(=O)O (configuration not stated) .
96 % of control

I would be grateful if you could share the reported T/C for "CCN(CC)CCOc1ccc(C2=C(c3ccccc3)CCc3cc(OC)ccc32)cc1" .
90 % of control

I would be grateful if you could share the reported T/C for "CCC/C(=N/OC(=O)N(C)C)c1ccccc1" .
97 % of control

====

# T/C per entry
# System: L1210 leukemia ip in BDF1 mice, survival T/C
# Procedure Text: NCI In Vivo Anticancer Drug Screen. Data for tumor model L1210 Leukemia (intraperitoneal) in B6D2F1 (BDF1) mice
# Condition Info: endpoint: mean survival time; dose: 100.0 mg/kg/injection; schedule: Q04DX003 (ip); vehicle: Klucel (hydroxypropylcellulose) (HPC); higher = longer survival
Toxic doses and inconclusive results are not listed.

Molecule: O=C(O)c1ccccc1CBr
T/C: 93 % of control

Molecule: COC(=O)c1cccc2cnccc12
T/C: 107 % of control

Molecule: COc1ccc(NC(=O)c2ccccc2Cl)cc1
T/C: 105 % of control

Molecule: S=P(/C=C/c1ccccc1)(c1ccccc1)c1ccccc1
T/C: 95 % of control

Molecule: CCCCCCCCCCCCNc1nnc(Cl)c2ccccc12
T/C: 95 % of control

I would be grateful if you could share the reported T/C for "COC(=O)c1nc2c(N)nc(-c3ccccc3)nc2nc1N" .
103 % of control

I would be grateful if you could share the reported T/C for "CN=C(NC)c1ccc(Cl)c(Cl)c1" .
96 % of control

I would be grateful if you could share the reported T/C for "COc1ccccc1C1OCC(C)(C)CO1" .
109 % of control

I would be grateful if you could share the reported T/C for "CN(C)c1ccc(/C=N\NC(=O)CCCCC(=O)N/N=C\c2ccc(N(C)C)cc2)cc1" .
94 % of control

I would be grateful if you could share the reported T/C for O=C1NC(O)C(O)N1 (stereo not drawn) .
100 % of control

====

# T/C per entry
# Tested on: L1210 leukemia ip in BDF1 mice, survival T/C
# Procedure Text: NCI In Vivo Anticancer Drug Screen. Data for tumor model L1210 Leukemia (intraperitoneal) in B6D2F1 (BDF1) mice
# Condition Info: endpoint: mean survival time; dose: 50.0 mg/kg/injection; schedule: Q01DX009 (ip); vehicle: saline with Tween-80; higher = longer survival
Toxic doses and inconclusive results are not listed.

Solved cases below.
Compound: COc1ccc(/C=N/NC(=O)CNC(=O)c2ccc(Cl)c(Cl)c2)cc1OC
T/C: 91 % of control

Compound: CCCCCCCCCCOS(C)=O (stereo not given)
T/C: 100 % of control

Compound: CCCN(CCC)CCCCO
T/C: 102 % of control

Compound: COc1ccccc1CC(C)(C)O
T/C: 98 % of control

Compound: OCCC1(CCO)CCCCC1
T/C: 95 % of control

GET /values?readout=T/C&system=L1210 leukemia ip in BDF1 mice, survival T/C&item= "O=C(C[n+]1ccccc1)N/N=C/c1ccc(Cl)cc1"
96 % of control

GET /values?readout=T/C&system=L1210 leukemia ip in BDF1 mice, survival T/C&item= "CCc1nc2ccccc2c(=O)n1-c1ccc(Cl)cc1"
92 % of control

GET /values?readout=T/C&system=L1210 leukemia ip in BDF1 mice, survival T/C&item= "COc1cccc(/C=N\NC(=O)CNC(=O)Nc2ccc(Cl)c(Cl)c2)c1OC"
93 % of control

GET /values?readout=T/C&system=L1210 leukemia ip in BDF1 mice, survival T/C&item= "COC(=O)CC(=O)C(C)(C)C"
101 % of control

GET /values?readout=T/C&system=L1210 leukemia ip in BDF1 mice, survival T/C&item= CCCCCCCC(O)CCC(=O)NN (stereo not given)
102 % of control

GET /values?readout=T/C&system=L1210 leukemia ip in BDF1 mice, survival T/C&item= "CC(C)(O)C(=O)NC/C=C/c1ccccc1"
93 % of control

GET /values?readout=T/C&system=L1210 leukemia ip in BDF1 mice, survival T/C&item= "Nc1nc(=S)[nH][nH]1"
105 % of control

GET /values?readout=T/C&system=L1210 leukemia ip in BDF1 mice, survival T/C&item= N#CC(C(N)=O)c1ccccc1 (stereo not given)
94 % of control

GET /values?readout=T/C&system=L1210 leukemia ip in BDF1 mice, survival T/C&item= "c1cc2ccsc2cn1"
102 % of control

GET /values?readout=T/C&system=L1210 leukemia ip in BDF1 mice, survival T/C&item= "CC(=O)CSc1nc2nccnc2[nH]1"
110 % of control

====

# T/C per entry
# Test system: L1210 leukemia ip in BDF1 mice, survival T/C
# Procedure Text: NCI In Vivo Anticancer Drug Screen. Data for tumor model L1210 Leukemia (intraperitoneal) in B6D2F1 (BDF1) mice
# Condition Info: endpoint: mean survival time; dose: 400.0 mg/kg/injection; schedule: Q04DX003 (ip); vehicle: saline; higher = longer survival
# Experimental: The antitumor activity of compounds was measured in mice bearing transplantable tumors. Survival or tumor size were measured and the results are expressed as the measurement made in the treated group (T) divided by the measurement made in the vehicle treated control group (C). The tumor model used in this assay is L1210 Leukemia (intraperitoneal) in B6D2F1 (BDF1) mice
Toxic doses and inconclusive results are not listed.

Solved cases below.
Molecule: COC(=O)c1cscc1C=O
Endpoint Value: 93 % of control

Molecule: Cc1cccc(C(=O)O)n1
Endpoint Value: 95 % of control

Molecule: Cc1ccc(N2CSC(=S)N(c3ccc(C)cc3)C2)cc1
Endpoint Value: 88 % of control

Molecule: CC(=O)Nc1ccc2c(O)cc(S(=O)(=O)O)cc2c1
Endpoint Value: 98 % of control

Molecule: O=P(O)(O)c1ccc(N=Nc2ccc(P(=O)(O)O)cc2)cc1
Endpoint Value: 97 % of control

I would be grateful if you could share the reported T/C for CC1SC(N)=NC1=O (configuration not stated) .
93 % of control

I would be grateful if you could share the reported T/C for O=C(O)C(Cc1ccc(O)cc1)c1ccccc1 (configuration not stated) .
96 % of control

I would be grateful if you could share the reported T/C for CC(C(=O)c1ccccc1)S(=O)(=O)O (configuration not stated) .
96 % of control

I would be grateful if you could share the reported T/C for "C[N+]1=COCC1(C)C" .
97 % of control

I would be grateful if you could share the reported T/C for "O=C(COCc1ccccc1)OCc1ccccc1" .
94 % of control

I would be grateful if you could share the reported T/C for "CC(=O)Nc1ccc(S(=O)(=O)NO)cc1" .
101 % of control

I would be grateful if you could share the reported T/C for "Cc1cc(C)c(-c2c(C)cc(C)cc2[N+](=O)[O-])c([N+](=O)[O-])c1" .
86 % of control

Where do these numbers come from? They come from PubChem BioAssay AID248.
